Tested on: OVCAR3 cells
MEASUREMENT_DESCRIPTION: MTT proliferation assay, OVCAR3;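 further: compound given as an 8- or 10-point series, one day after plating, with exposure covering roughly 3-4 cell doublings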
Assay type: cell-based
CONDITION_INFO: 5 days compound exposure, 1:3 serial dilution starting at 10 μM
*1 amine or outer side, *2 acyl side, *3 side chain or, on linkers, in order; H or OH if unused. Where a SMILES comes first, the peptide text is derived from it. Bridges are numbered along the chain shown (N, C = ends). [ ]: non-standard residue; d: D form. The star is where a group is joined. X138 = CN([C@@H](Cc1cc(Cl)ccc1-c1ccc(S(=O)(=O)N2CCCC2)cc1)C(=O)[*:2])[*:1]; NMehhhLys(Me) = CN([C@@H](CCCCCCCN(C)[*:3])C(=O)[*:2])[*:1]; X180 = CN([C@@H](Cc1cc(F)ccc1-c1cnn2c1CCC2)C(=O)[*:2])[*:1]; cBuCO(3,3-F2-1-CF3) = O=C(C1(C(F)(F)F)CC(F)(F)C1)*; Pro(trans-4-F) = O=C(O)[C@@H]1C[C@@H](F)CN1; Gly(cPr) = N[C@H](C(=O)O)C1CC1
The compounds listed here are annotated with their GI50.

Examples from the recorded data:
• CC(C)C[C@@H]1NC(=O)[C@@H](N(C)C(=O)[C@@H](NC(=O)[C@@H]2C[C@@H](F)CN2C(=O)C2(C(F)(F)F)CC(F)(F)C2)C2CC2)CC=CCCCCNC(=O)[C@H](Cc2cc(Cl)cnc2OC2CC2)N(C)C1=O [Example 129] = 2580 nM
• CC(C)C[C@@H]1NC(=O)[C@@H](N(C)C(=O)[C@@H](NC(=O)[C@@H]2C[C@@H](F)CN2C(=O)C2(C(F)(F)F)CC(F)(F)C2)C2CC2)CCCCCCCN(C)C(=O)[C@H](Cc2cc(Cl)ccc2-c2ccc(S(=O)(=O)N3CCCC3)cc2)N(C)C1=O [Example 266] ({cBuCO(3,3-F2-1-CF3)}-[Pro(trans-4-F)][Gly(cPr)][NMehhhLys(Me)]L[X138]; lactam 3-C) = 50 nM

// below: GI50 requested for another compound
Req: Tell me GI50 reported for CC(C)C[C@@H]1NC(=O)[C@@H](N(C)C(=O)[C@@H](NC(=O)[C@@H]2C[C@@H](F)CN2C(=O)C2(C(F)(F)F)CC(F)(F)C2)C2CC2)CCCCCCCN(C)C(=O)[C@H](Cc2cc(F)ccc2-c2cnn3c2CCC3)N(C)C1=O [Example 148] ({cBuCO(3,3-F2-1-CF3)}-[Pro(trans-4-F)][Gly(cPr)][NMehhhLys(Me)]L[X180]; lactam 3-C)
Resp: 10 nM

src = patent US20240408169A1
